The measurements presented in this section are drawn from patent US20240294508A1.

System: HT-29 cells
PROCEDURE TEXT: HT29 cells 0FBS assay in vitro: TNF-α/SMAC mimetic/zVAD-FMK induced necroptosis, CellTiter-Glo cell viability (RIP1 inhibitory activity)
Type: cell-based
COND: Homo sapiens, FBS free medium, TNF-α (10 ng/ml) + SMAC mimetic (6 uM) + zVAD-FMK (10 μM), 20 hours, geometric mean EC50
Below: a set of entries, each annotated with reported EC50.

Previously resolved entries follow.
* CCn1nccc1-c1cc(OC2CN(C(=O)N3N=CC[C@H]3c3cncc(F)c3)C2)c(F)cn1 | 0.1 to 100 nM
* Cn1ncc(C#N)c1-c1ncc(F)c(OC2CN(C(=O)N3N=CC[C@H]3c3cc(F)cc(C#N)c3)C2)n1 | 0.1 to 100 nM
* Cc1nc(C2CC=NN2C(=O)N2CC(Oc3cc(-c4c(C)cnn4C)ncc3F)C2)c(C)s1 (stereo not drawn) | 100 to 1000 nM
* Cc1nn(-c2cc(OC3CN(C(=O)N4N=CC[C@H]4c4cc(F)cc(C#N)c4)C3)c(F)cn2)c(C)c1C(=O)NC1CC1 | 0.1 to 100 nM
* Cc1cnn(C)c1-c1ccc(F)c(OC2CN(C(=O)N3N=CC[C@H]3c3cc(F)cc(C#N)c3)C2)n1 | 0.1 to 100 nM
* Cc1nn(-c2cc(OC3CN(C(=O)N4N=CCC4c4cc(F)cc(Cl)c4)C3)c(F)cn2)c(C)c1C(N)=O (stereo not drawn) | 0.1 to 100 nM
* Cc1cc(F)cc(C2CC=NN2C(=O)N2CC(Oc3cc(-c4c(C)cnn4C)ncc3F)C2)c1 (stereo not drawn) | 0.1 to 100 nM
* Cc1nc(C(N)=O)c(C)n1-c1cc(OC2CN(C(=O)N3N=CC[C@H]3c3cncc(F)c3)C2)c(F)cn1 | 100 to 1000 nM

[Q] Report measured EC50; entry is Cc1cc(F)cc(C2CC=NN2C(=O)N2CC(Oc3cc(-n4nc(C)c(C(N)=O)c4C)ncc3F)C2)c1 (stereo not drawn)
[A] 0.1 to 100 nM

[Q] Report measured EC50; entry is Cc1csc(C2CC=NN2C(=O)N2CC(Oc3cc(-c4c(C)cnn4C)ncc3F)C2)n1 (stereo not drawn)
[A] 100 to 1000 nM

[Q] Report measured EC50; entry is Cn1nccc1-c1csc(OC2CN(C(=O)N3N=CC[C@H]3c3cc(F)cc(F)c3)C2)n1
[A] 0.1 to 100 nM

[Q] Report measured EC50; entry is Cc1ccn(C)c(=O)c1-c1cc(OC2CN(C(=O)N3N=CC[C@H]3c3cc(F)cc(F)c3)C2)c(F)cn1
[A] 1000 to 10000 nM

[Q] Report measured EC50; entry is Cc1ncc(C2CC=NN2C(=O)N2CC(Oc3cc(-c4c(C)c(N)nn4C)ncc3F)C2)s1 (stereo not drawn)
[A] 0.1 to 100 nM

[Q] Report measured EC50; entry is Cn1nccc1-c1ncc(F)c(OC2CN(C(=O)N3N=CC[C@H]3c3cc(F)cc(C#N)c3)C2)n1
[A] 0.1 to 100 nM

[Q] Report measured EC50; entry is Cc1nc(C2CC=NN2C(=O)N2CC(Oc3cc(-c4c(C)cnn4C)ncc3Cl)C2)cs1 (stereo not drawn)
[A] 1000 to 10000 nM
